Tested on: ATP;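 further: ATP exposure 15 min at 22 °C before imaging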
METHOD DESCRIPTION: switch fluorescence ratio, 500 uM ATP over buffer (Cy3 cluster intensity, sum of 5 cycles each) (fold (ratio)); higher = stronger signal-on switching upon ATP binding; sequences stand for … in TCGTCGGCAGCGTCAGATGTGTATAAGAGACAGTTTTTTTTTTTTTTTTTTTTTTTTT…TC
APPLIED CONDITIONS: aptamer strand: ATP DNA aptamer (quencher-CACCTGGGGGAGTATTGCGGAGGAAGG + anchor), 100 nM annealed; ATP concentration: 500 uM
ASSAY READOUT: switch fluorescence ratio

// below: answered sequences
AGGCAAATGC :: 1.25
AGACGGCAAA :: 1.03

Entry CCAACAGGGA ; assay system ATP; switch fluorescence ratio recorded at 1.11
